Where do these numbers come from? They come from patent US20240376180A1.

test_target: Spike protein of authentic SARS-CoV-2 (Munich isolate 984) (SARS-CoV-2, UniProt P0DTC2 14-1273)
method: cell-based or functional assay
result_type: IC50 (PRNT, authentic SARS-CoV-2) (µg/mL)
Use µg/mL as the unit, but write only the number.

Some binders with recorded IC50 (PRNT, authentic SARS-CoV-2):
INSERT INTO measurements (binder, result_type, u, reported_measurement) VALUES
  ('HL CV07-283 (antibody, V domains shown) VH: QVQLVQSGAEVKKPGASAKVSCKASGYTFTGYYIHWVRQAPGQGLEWMGLINPISGGTNYAQKFQDRVTMTRDTSISTAYMELSRLRSDDTAVYYCVRGPFYYDSSGPLGGMDVWGQGTTVTVSS VL: QSALTQPASVSGSPGQSITISCTGTSGDVGGYNYVSWYQQHPGKAPKLMIYEVSNRPSGVSNRFSGSKSGNTASLTISGLQAEDEADYYCSSYTSSSTYVFGTGTKVTVLG', 'IC50 (PRNT, authentic SARS-CoV-2)', 'µg/mL', 0.0169),
  ('HL CV07-222 (antibody, V domains shown) VH: QVQLVQSGAEVKKPGASVKVSCKASGYTFTDYYVHWVRQAPGQGLEWMGWINPISGGTNYAQKFQGRVTMTRDTSISTAYMELSRLRSDDTAVYYCARGPYYYDSSGSLGAFDIWGQGTMVTVSS VL: QSALTQPASVSGSPGQSITISCTGTSSDVGSYNLVSWYQQHPGKAPKLMIYEGSKRPSGVSNRFSGSKSGNTASLTISGLQAEDEAHYYCCSYAGGSTSYVFGTGTKVTVLG', 'IC50 (PRNT, authentic SARS-CoV-2)', 'µg/mL', 0.0078),
  ('HK CVX1-126 (antibody, V domains shown) VH: EVQLVESGGGLVQPGGSLRLSCAASGLTVSSNYMSWVRQAPGKGLEWVSVIYSGGSTYYADSVKGRFTISRHNSKNTLYLQMNSVRAEDTAVYYCARDLSEGGMDVWGQGTTVTVSS VL: DIQMTQSPSSVSASVGDRVTITCRASQGISSWLAWYQQKPGKAPKLLIYAASTLQSGVPSRFSGSGSGTDFTLTISSLQPEDFATYYCQQANGFPPLFGGGTKVEIKR', 'IC50 (PRNT, authentic SARS-CoV-2)', 'µg/mL', 0.0717);

Consider now this further binder.
q: Which IC50 (PRNT, authentic SARS-CoV-2) value belongs to HL CV07-250 (antibody, V domains shown) VH: QVQLVQSEAEVKEPGASVEVSCKASGYNFTNFAISWVRQAPGQGLEWMGWISGYNGDTNSAQKFLGRVTMTTDTSTTTAYMELRSLRSDDTAVYYCAGSDNYGFPYNGMDVWGQGTTVTVSS VL: QSALTQPPSASGSPGQSVTISCTGTSSDLGAYHFVTWYQHYPGKAPKVMIYGVRKRPSGVPDRFSGSKSGNTASLTVSGLQDEDEADYYCSSYAGNNDFVFGGGTKLTVLS ?
a: 0.0035
